Here we list compounds with their recorded IC50 when tested on Beta-secretase 1 (Homo sapiens, UniProt P56817).
Sequence (P56817 whole entry): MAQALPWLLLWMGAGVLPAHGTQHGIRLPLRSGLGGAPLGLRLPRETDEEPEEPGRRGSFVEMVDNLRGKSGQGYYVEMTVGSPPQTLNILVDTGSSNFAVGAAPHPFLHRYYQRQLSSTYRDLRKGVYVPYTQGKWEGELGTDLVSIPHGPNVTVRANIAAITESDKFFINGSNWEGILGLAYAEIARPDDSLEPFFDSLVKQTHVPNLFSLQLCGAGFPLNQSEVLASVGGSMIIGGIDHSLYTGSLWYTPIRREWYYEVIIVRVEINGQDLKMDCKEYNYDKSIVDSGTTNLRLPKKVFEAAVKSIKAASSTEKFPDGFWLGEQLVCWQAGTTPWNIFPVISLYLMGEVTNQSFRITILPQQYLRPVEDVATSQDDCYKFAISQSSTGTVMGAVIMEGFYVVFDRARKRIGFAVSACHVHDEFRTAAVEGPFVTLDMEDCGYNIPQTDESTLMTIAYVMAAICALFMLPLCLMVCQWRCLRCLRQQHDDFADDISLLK
Could you give me the number in µM? Just the number is fine.

>>> endpoint_result("CCCOc1cccc(-c2cc(C#N)cc(Oc3ccccc3F)c2)c1 [Benzonitrile, 5c]")
80.3
>>> endpoint_result("CCCCOc1cccc(-c2cc(Oc3ccccc3F)cc(C(=N)N)c2)c1 [Benzimidamide, 6d]")
3.35
>>> endpoint_result("CCCCOc1cccc(-c2cc(C#N)cc(Oc3ccccc3F)c2)c1 [Benzonitrile, 5d]")
9.35
>>> endpoint_result("CCCOc1cccc(-c2cc(Oc3ccccc3)cc(C(=N)N)c2)c1 [Benzimidamide, 6a]")
8.02
>>> endpoint_result("CCCOc1cccc(-c2cc(Oc3ccccc3F)cc(C(=N)N)c2)c1 [Benzimidamide, 6c]")
4.36

Exercise: Enter reported IC50 observed with Beta-secretase 1 (Homo sapiens, UniProt P56817) for CCCCOc1cccc(-c2cc(Oc3ccccc3)cc(C(=N)N)c2)c1 [Benzimidamide, 6b]
Key: 7.03
